Source: patent US20240116985A1

# target under test: full-length beta-Catenin (Uniprot ID P35222) (Homo sapiens (Human)) (UniProt P35222)
# protocol summary: fluorescence polarization competition; displacement of 5FAM-TCF4(10-53) from full-length beta-catenin
Starred links: 1 amine or outer side, 2 acyl side, 3 side chain; linkers in the order of their positions; H or OH if unused. Positions of bridges follow the written chain, without caps; N, C: chain ends. Non-standard residues stand in square brackets, D forms with d. Primed or numbered codes have the meaning given here. *: point of attachment. PyrS2″ = (S)-3-amino-1-((pent-4-en-1-yloxy)carbonyl)pyrrolidine-3-carboxylic acid (stapling residue), C=CCCCOC(=O)N1CC[C@@](N[*:1])(C(=O)[*:2])C1; B5(5) = 2,2-bis(4-pentenyl)glycine, 2-amino-2-(pent-4-en-1-yl)hept-6-enoic acid (stitching residue), C=CCCCC(CCCC=C)(N[*:1])C(=O)[*:2]; PyrS2 = (S)-3-amino-1-((pent-4-en-1-yloxy)carbonyl)pyrrolidine-3-carboxylic acid, C=CCCCOC(=O)N1CC[C@@](N[*:1])(C(=O)[*:2])C1; F2PipNva = (S)-2-amino-5-(4,4-difluoropiperidin-1-yl)pentanoic acid, O=C([C@H](CCCN1CCC(F)(F)CC1)N[*:1])[*:2]; MorphAsn = (S)-2-amino-4-morpholino-4-oxobutanoic acid, O=C(C[C@H](N[*:1])C(=O)[*:2])N1CCOCC1; B5(3) = 2,2-bis(4-pentenyl)glycine (stitching residue), C=CCCCC(CCCC=C)(N[*:1])C(=O)[*:2]; Me3AdamantC = 3,5,7-trimethyladamantane-1-carbonyl, CC12CC3(C)CC(C)(C1)CC(C(=O)*)(C2)C3; Bta = N[C@@H](Cc1csc2ccccc12)C(=O)O; αAllylPro = C=CC[C@@]1(C(=O)O)CCCN1; tBuAla = CC(C)(C)C[C@H](N)C(=O)O; 3Thi = N[C@@H](Cc1ccsc1)C(=O)O; hSer = N[C@@H](CCO)C(=O)O
Please provide measured IC50 for the entries that follow.
Return type: number; implicit unit nM.

Reported IC50 for Ac-[αAllylPro]DN[B5(5)]DDAAFL[PyrS2″][3Thi][Bta][hSer]-NH2 (staple 1-4, 4-11) [I-1518: Ac-PL3-Asp-Asn-B5-Asp-Asp-Ala-Ala-Phe-Leu-PyrS2-3Thi-BztA-Hse-NH2] was 23

Reported IC50 for Ac-[αAllylPro]D[tBuAla][B5(5)]DDAAFQ[PyrS2][3Thi][Bta]H-NH2 (staple 1-4, 4-11) [I-1460] was 7

Reported IC50 for Ac-[αAllylPro]D[tBuAla][B5(3)]DDAAF[F2PipNva][PyrS2″][3Thi][Bta]Q-NH2 (staple 1-4, 4-11) [I-1486] was 5

Reported IC50 for Ac-[αAllylPro]D[tBuAla][B5(3)]DD[MorphAsn]AFL[PyrS2″][3Thi][Bta]Q-NH2 (staple 1-4, 4-11) [I-1483] was 22

Reported IC50 for Ac-[αAllylPro]D[tBuAla][B5(5)]DDAAFL[PyrS2″][3Thi][Bta]QK(Me3AdamantC)-NH2 (staple 1-4, 4-11) [I-1479] was 173
